Source listed as patent US10351575B2.

# measurement target: CDK2/cyclinE (Homo sapiens (Human))
# assay name: KinaseProfiler off-target kinase profiling
# Format: biochemical
# measurement context: 10 μM, ATP near Km

# compound, Avg. POC / POC
rows = [
    ("Cc1c(-c2ccc(=O)n(C)c2)nn(-c2ccccc2)c1NC(=O)NC1CN(CC(F)(F)F)Cc2ccccc21 (stereo not shown)", 97.5),
    ("Cc1c(-c2cnn(C)c2)nn(-c2ccccc2)c1NC(=O)NC1CCOc2cc(F)ccc21 (stereo not shown)", 96.5),
    ("COCc1ccc2c(c1)C(NC(=O)Nc1c(C)c(-c3cnn(C)c3)nn1-c1ccccc1)COC2 (stereo not shown)", 106),
    ("Cc1c(-c2cnn(C)c2)nn(-c2ccccc2)c1NC(=O)N[C@H]1CCCc2ccccc21", 116.5),
]
